# System under test: T1, mouse IL-2Rβ (mouse) (UniProt P16297)
# T1 sequence (looked up): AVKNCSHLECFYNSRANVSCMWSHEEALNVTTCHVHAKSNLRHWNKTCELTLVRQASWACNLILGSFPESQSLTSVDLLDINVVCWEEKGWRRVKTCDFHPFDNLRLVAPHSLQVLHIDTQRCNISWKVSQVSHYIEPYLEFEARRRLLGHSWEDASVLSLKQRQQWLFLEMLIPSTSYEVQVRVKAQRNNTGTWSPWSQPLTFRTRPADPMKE
# Procedure text: P.E. ELISA, coated protein
Classify by measured P.E. binding ELISA OD: Condition met if it is equal to or exceeds 0.05 OD450 nm, Condition not met if it is smaller.

Q: Item FJ1427_P035MP02B06 (VHH) VHH: QVQLVESGGGLVQPGESLGLSCAASGFTFSNYAMSWVRQAPGKGLEWVSSITGAGRGTDYADSVKGRFTISRDNAKNTLYLQMNSLKPEDTAVYYCAKYSSGTYYPPTPVRGTDYRGQGTQVTVSS with P.E. binding ELISA OD of 0.05 OD450 nm or above?
Result: Condition not met

Q: Item FJ1427_P035MP02A06 (VHH) VHH: QVQLQESGGGLVQAGGSLRLSCAASGGTFSSYAMGWFRQAPGKEREFVAATTRGGGRTMYAVSTEGRFTCSRDNDKNTVYLLMNSLKPKDTAVYYCAAMTSYYSGTYYPDSSDFDIWGQGTQVTVSS with P.E. binding ELISA OD of 0.05 OD450 nm or above?
Result: Condition not met

Q: Item FJ1427_P035MP02B09 (VHH) VHH: EVQLVESGGGLVQAGGSLRLSCAASGRTFSTTEMGWFRQAPGKEREFVAAITWTGRGTMYAESVEGRFTISRENAKNMVYLQMNSLKPEDTAIYYCAAARRGRAAVRSEGGYDFWGQGTQVTVSS with P.E. binding ELISA OD of 0.05 OD450 nm or above?
Result: Condition not met

Q: Item FJ1427 P035MP02E11 (VHH) VHH: QVQLQESGGGLVQAGGSLRLSCAASGRTFSNYVMAWFRQAPGKEREFVGAITQTGRGTFYADSVEGRFTISRINDKNTVYLQMNSLKPEDTAVYYCSAPRSGRAGTRNQMDYEYWGQGTQVTVSS with P.E. binding ELISA OD of 0.05 OD450 nm or above?
Result: Condition not met

Q: Item FJ1427_P035MP02F01 (VHH) VHH: EVQLVESGGGLVQTGGSLRLSCAVSGSRFISDVMGWYRQVPGKQRELVADMADGGSAKYADSVKGRFSILRDSVKNTVYLQMSSLKPEDTGIYYCKAGLWIAGRHSDYWGQGTQVTVSS with P.E. binding ELISA OD of 0.05 OD450 nm or above?
Result: Condition not met

Q: Item FJ1427_P035MP02G09 (VHH) VHH: QVQLVESGGGLVQAGGSLRLSCTVSGDVFVRYTMAWFRQAPGKEREFVALVTDSGRTTEYVDSVKGRFTVSRDNAKNTVYLQMNNLKPEDTAVYYCAANTDYFRIRSLDANTWGQGTQVTVSS with P.E. binding ELISA OD of 0.05 OD450 nm or above?
Result: Condition met

Q: Item FJ1427 P035MP02G08 (VHH) VHH: QVQLVESGGGLVQAGGSLRLSCTVSGDVFVRYTMAWFRQAPGKEREFVASVTDSGRTTEYVHSVRGRFTVSRDNAKNTVYLQMNNLKPEDTAVYYCAANTDYFRIRSLDANTWGQGTQVTVSS with P.E. binding ELISA OD of 0.05 OD450 nm or above?
Result: Condition met

Q: Item FJ1427 P035MP02C08 (VHH) VHH: EVQLVESGGGLVQAGGSLRLSCAASGSTFSRQPMYWFRQAPGKEREFVAAITWSGRGTLYADSVEGRFTISRDNAKNTVYLQMNSLRPDDTAAYYCAAGPYGDAAYRHGRIDSWGQGTQVTVSS with P.E. binding ELISA OD of 0.05 OD450 nm or above?
Result: Condition not met

Q: Item FJ1427_P035MP02D07 (VHH) VHH: EVQLVESGGGLVQAGGSLRLSCAASGRSLSTTEMGWFRQAPGKEREFVAAITWSGRGTMYAESVEGRFAVSRENAKNTVYLQMNSLKPEDTAIYYCAAARRGRAAVRSEGGYDFWGQGTQVTVSS with P.E. binding ELISA OD of 0.05 OD450 nm or above?
Result: Condition not met

Q: Item FJ1427_P035MP02C07 (VHH) VHH: QVQLVESGGGLVQAGGSLRLSCAASGRTFSINTMGWFRQAPGKEREFVAAISRSGDSTVYVDSVKGRFTISRDNAKNTVYLQMNTLKPEDTAVYYCATTVAVGWTTRWSTIDFDSWGQGTQVTVSS with P.E. binding ELISA OD of 0.05 OD450 nm or above?
Result: Condition not met

Q: Item FJ1427 P035MP02D09 (VHH) VHH: QVQLVESGGGLVQAGGSLRLACALSGDVFVRYTMAWFRQAPGKEREFVASVTDSGRTTDYVASVQGRFTVSRDNNKNTVYLQMNSLKPEDTAVYYCAANTDYFQIRSLDRNTWGQGTQVTVSS with P.E. binding ELISA OD of 0.05 OD450 nm or above?
Result: Condition met

Q: Item FJ1427 P035MP02D01 (VHH) VHH: QVQLQESGGGLVQTGGSLRLSCAASGSQFINDVMGWYRQVPGKQRELVADMDDTGSTKYADSVKGRFTILRDSVKNTAYLQMSNLKPEDTGVYYCKAGLWIKGRHSDYWGQGTQVTVSS with P.E. binding ELISA OD of 0.05 OD450 nm or above?
Result: Condition not met

meta.source: patent US20240409645A1
